- experimental_target: T1, Beta Transducin repeat-containing protein (βTrCP), tag cleaved and complexed with Skp1 (UniProt Q9Y297 175-605; P63208 1-163)
- T1 construct: the FP protocol says that Ki is determined from FP dose-response curves; also called βTrCP/Skp1
- T1 sequence (Q9Y297 175-605, chain 1 of 2): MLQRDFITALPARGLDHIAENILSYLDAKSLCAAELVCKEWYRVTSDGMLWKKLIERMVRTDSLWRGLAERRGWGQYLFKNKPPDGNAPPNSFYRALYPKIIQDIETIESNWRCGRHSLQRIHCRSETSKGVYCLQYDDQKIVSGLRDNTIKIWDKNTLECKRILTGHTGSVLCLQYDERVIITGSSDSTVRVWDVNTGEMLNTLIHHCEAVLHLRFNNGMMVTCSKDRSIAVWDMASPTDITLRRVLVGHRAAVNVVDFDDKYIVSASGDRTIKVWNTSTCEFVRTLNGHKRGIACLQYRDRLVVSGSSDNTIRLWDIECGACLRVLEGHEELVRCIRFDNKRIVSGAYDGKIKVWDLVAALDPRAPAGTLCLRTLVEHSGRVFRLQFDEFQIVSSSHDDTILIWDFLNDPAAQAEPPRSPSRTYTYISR
- T1 sequence (P63208 whole entry, chain 2 of 2): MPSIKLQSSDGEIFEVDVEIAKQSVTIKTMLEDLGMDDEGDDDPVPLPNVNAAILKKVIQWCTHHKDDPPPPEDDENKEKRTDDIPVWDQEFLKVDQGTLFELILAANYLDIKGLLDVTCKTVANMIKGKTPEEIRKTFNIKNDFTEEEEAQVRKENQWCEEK
- measurement_description: FP competition dose-response, fluorescein-IkB peptide tracer on βTrCP/Skp1 (average Ki; assay not given)
Non-standard residues stand in square brackets, D forms with d. *: point of attachment. Benzenesulfonyl(4-OMe) = COc1ccc(S(=O)(=O)*)cc1; Phe(3-F) = N[C@@H](Cc1cccc(F)c1)C(=O)O; 2Naphthoyl = O=C(c1ccc2ccccc2c1)*; Bz = O=C(c1ccccc1)*; Ahx = NCCCCCC(=O)O
In this section, each of the binders is paired with its reported Ki.
Entry rule: numbers only, all in nM.

Worked cases, answers included:
INSERT INTO measurements (binder, recorded_number) VALUES
  ('{Benzenesulfonyl(4-OMe)}-[dD]EG[Phe(3-F)]WE[Ahx]K(2Naphthoyl)-NH2 (also called UBP055) [4-(MeO)PhSO2-dEGF(3F)WE-Ahx-K(NHCO-2-Naph)-NH2]', 1.85),
  ('{4‑Br‑3‑CF3‑PhSO2}-[dD]EG[Phe(3-F)]WE-NH2 (also called UBP046) [4-Br-3-CF3-PhSO2-dEGF(3F)WE-NH2]', 14.2),
  ('{4‑i‑Pr‑PhSO2}-[dD]EG[Phe(3-F)]WE-NH2 (also called UBP040) [4-i-Pr-PhSO2-dEGF(3F)WE-NH2]', 1.6),
  ('{Benzenesulfonyl(4-OMe)}-[dD]EG[Phe(3-F)]WE[Ahx]K(Bz)-NH2 (also called UBP061) [4-(MeO)PhSO2-dEGF(3F)WE-Ahx-K(NHCOPh)-NH2]', 3.1),
  ('{Benzenesulfonyl(4-OMe)}-[dD]EG[Phe(3-F)]WE[Ahx]K(4‑(dimethylamino)benzoyl)-NH2 (also called UBP071) [4-(MeO)PhSO2 dEGF(3F)WE-Ahx-K(NHCO-(4-(Me2N)-Ph))-NH2]', 9.51);

Q) State, in one line, measured Ki of {2‑Naph‑SO2}-[dD]EG[Phe(3-F)]WE-NH2 (also called UBP044) [2-Naph-SO2-dEGF(3F)WE-NH2]
A) 5.81

meta.source: patent US20190106460A1
